All values here come from patent US4327097A.

system: Pseudomonas aeruginosa; experiment: MIC against clinical isolates; type: cell-based; conditions: Table 6-3, clinical isolate; unit assumed
readout: MIC Pseudomonas aeruginosa GN 82 (µg/mL)
Numbers only, in µg/mL.

For every item in the list below, what is its measured MIC Pseudomonas aeruginosa GN 82?
1. CC(=O)OCC1=C(C(=O)O)N2C(=O)C(NC(=O)C(NC(=O)N3CCN(C)C(=O)C3=O)c3ccccc3)C2SC1 (single isomer, unassigned)
2. CN1CCN(C(=O)NC(C(=O)NC2C(=O)N3C(C(=O)O)=C(CSc4nnnn4C)CSC23)c2ccccc2)C(=O)C1=O (single isomer, unassigned)
3. Cn1nnnc1SCC1=C(C(=O)O)N2C(=O)C(NC(=O)C(NC(=O)N3CCN(CCO)C(=O)C3=O)c3ccccc3)C2SC1 (single isomer, unassigned)
4. CCN1CCN(C(=O)NC(C(=O)NC2C(=O)N3C(C(=O)O)=C(CSc4nnnn4C)CSC23)c2ccc(O)cc2)C(=O)C1=O (centres unmarked)
5. CCCCCCCCN1CCN(C(=O)N[C@@H](C(=O)NC2C(=O)N3C(C(=O)O)=C(CSc4nnnn4C)CSC23)c2ccccc2)C(=O)C1=O (single isomer, unassigned)
6. Cc1nnc(SCC2=C(C(=O)O)N3C(=O)C(NC(=O)C(NC(=O)N4CCN(C)C(=O)C4=O)c4ccccc4)C3SC2)s1 (single isomer, unassigned)

Reply:
50
50
50
6.25
25
100

---

Answer each item with its documented MIC Shigella sonnei JS 11232.
test system: Shigella sonnei; assay: MIC against clinical isolates; assay type: cell-based; conditions: Table 5-5, clinical isolate; unit assumed
One number for each entry, in µg/mL.

Reference set, count: 5
>  <molecule>
CN1CCN(C(=O)NC(C(=O)NC2C(=O)N3C2SC(C)(C)C3C(=O)O)c2ccccc2)C(=O)C1=O (single isomer, unassigned) [Compound 37]

>  <assay-system>
Shigella sonnei

>  <MIC Shigella sonnei JS 11232 (µg/mL)>
100

$$$$
>  <molecule>
CCCCCN1CCN(C(=O)NC(C(=O)NC2C(=O)N3C2SC(C)(C)C3C(=O)O)c2ccccc2)C(=O)C1=O (single isomer, unassigned) [Compound 45]

>  <assay-system>
Shigella sonnei

>  <MIC Shigella sonnei JS 11232 (µg/mL)>
25

$$$$
>  <molecule>
CCCCN1CCN(C(=O)N[C@@H](C(=O)N[C@@H]2C(=O)N3[C@@H]2SC(C)(C)[C@@H]3C(=O)O)c2ccccc2)C(=O)C1 [Compound 14]

>  <assay-system>
Shigella sonnei

>  <MIC Shigella sonnei JS 11232 (µg/mL)>
25

$$$$
>  <molecule>
CC(C)N1CCN(C(=O)NC(C(=O)NC2C(=O)N3C2SC(C)(C)C3C(=O)O)c2ccccc2)C(=O)C1=O (single isomer, unassigned) [Compound 40]

>  <assay-system>
Shigella sonnei

>  <MIC Shigella sonnei JS 11232 (µg/mL)>
50

$$$$
>  <molecule>
CCCCCCCCN1CCN(C(=O)NC(C(=O)NC2C(=O)N3C2SC(C)(C)C3C(=O)O)c2ccccc2)C(=O)C1=O (single isomer, unassigned) [Compound No. 47]

>  <assay-system>
Shigella sonnei

>  <MIC Shigella sonnei JS 11232 (µg/mL)>
6.25

$$$$

Go through the list and state MIC Shigella sonnei JS 11232 for each entry.
1. CCCCN1CCN(C(=O)NC(C(=O)NC2C(=O)N3C2SC(C)(C)C3C(=O)O)c2ccccc2)C(=O)C1=O (single isomer, unassigned) [Compound 39]
2. CCCCCCN1CCN(C(=O)N[C@@H](C(=O)N[C@@H]2C(=O)N3[C@@H]2SC(C)(C)[C@@H]3C(=O)O)c2ccccc2)C(=O)C1 [Compound 13]

Reply:
1: 25; 2: 12.5

---

molecular target: β-lactamase, Escherichia freundii GN 346 (Citrobacter freundii, UniProt Q46041); assay: Resistant activity against β-lactamase, iodometric assay; type: biochemical; details: control Cephalorizine = 100
Sequence (Q46041 entry or part of it): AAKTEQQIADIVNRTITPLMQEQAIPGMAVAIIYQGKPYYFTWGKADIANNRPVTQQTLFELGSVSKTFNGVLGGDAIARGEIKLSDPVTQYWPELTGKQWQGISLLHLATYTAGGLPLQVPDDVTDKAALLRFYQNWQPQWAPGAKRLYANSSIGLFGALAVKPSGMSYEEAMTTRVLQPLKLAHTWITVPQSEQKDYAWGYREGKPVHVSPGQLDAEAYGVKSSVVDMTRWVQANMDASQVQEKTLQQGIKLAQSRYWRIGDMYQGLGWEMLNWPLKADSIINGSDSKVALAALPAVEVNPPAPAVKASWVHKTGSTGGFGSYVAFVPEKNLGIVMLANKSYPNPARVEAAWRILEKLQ
readout: Relative activity (%) against β-lactamase, E. freundii GN 346
Give bare numbers, in %.

The examples below pair each entry with its known result.
>  <compound>
CCN1CCN(C(=O)NC(C(=O)NC2C(=O)N3C(C(=O)O)=C(COC(N)=O)CSC23)c2ccc(O)cc2)C(=O)C1=O (single isomer, unassigned) [Compound No. 84]

>  <assay-system>
β-lactamase, Escherichia freundii GN 346 (Citrobacter freundii, UniProt Q46041)

>  <readout-units>
%

>  <recorded-measurement>
1

$$$$
>  <compound>
CCN1CCN(C(=O)NC(C(=O)NC2C(=O)N3C(C(=O)O)=C(CSc4nnc(C)s4)CSC23)c2ccc(O)cc2)C(=O)C1=O (single isomer, unassigned) [Compound No. 76]

>  <assay-system>
β-lactamase, Escherichia freundii GN 346 (Citrobacter freundii, UniProt Q46041)

>  <readout-units>
%

>  <recorded-measurement>
1

$$$$
>  <compound>
CCN1CCN(C(=O)NC(C(=O)NC2C(=O)N3C(C(=O)O)=C(CSc4nnnn4C)CSC23)c2ccc(O)cc2)C(=O)C1=O (stereo not shown) [Compound No. 72]

>  <assay-system>
β-lactamase, Escherichia freundii GN 346 (Citrobacter freundii, UniProt Q46041)

>  <readout-units>
%

>  <recorded-measurement>
0.2

$$$$

With those in mind, consider the next compound.
Ask: Need Relative activity (%) against β-lactamase, E. freundii GN 346, item CN1CCN(C(=O)NC(C(=O)NC2C(=O)N3C(C(=O)O)=C(CSc4nnnn4C)CSC23)c2ccccc2)C(=O)C1=O (single isomer, unassigned) [Compound No. 63]
Reply: 0.2

---

tested on: Staphylococcus aureus 209p; experiment: MIC, plate method, standard strains; type: cell-based; settings: Table 4, standard strain; unit assumed
readout: MIC Staphylococcus aureus 209p

>  <compound>
CCN1CCN(C(=O)NC(C(=O)NC2C(=O)N3C(C(=O)O)=C(COC(N)=O)CSC23)c2ccc(O)cc2)C(=O)C1=O (single isomer, unassigned)

>  <assay-system>
Staphylococcus aureus 209p

>  <MIC Staphylococcus aureus 209p>
< 1.57 µg/mL

$$$$
>  <compound>
Cc1csc(SCC2=C(C(=O)O)N3C(=O)C(NC(=O)C(NC(=O)N4CCN(C)C(=O)C4=O)c4ccccc4)C3SC2)n1 (single isomer, unassigned)

>  <assay-system>
Staphylococcus aureus 209p

>  <MIC Staphylococcus aureus 209p>
< 0.79 µg/mL

$$$$
>  <compound>
O=C(Cc1cccs1)N[C@@H]1C(=O)N2C(C(=O)[O-])=C(C[n+]3ccccc3)CS[C@H]12 [drawing 250, reference compound]

>  <assay-system>
Staphylococcus aureus 209p

>  <MIC Staphylococcus aureus 209p>
< 1.57 µg/mL

$$$$
>  <compound>
CC(=O)OCC1=C(C(=O)O)N2C(=O)[C@@H](NC(=O)Cc3cccs3)[C@H]2SC1 [drawing 248, reference compound]

>  <assay-system>
Staphylococcus aureus 209p

>  <MIC Staphylococcus aureus 209p>
< 1.57 µg/mL

$$$$
>  <compound>
CCN1CCN(C(=O)NC(C(=O)NC2C(=O)N3C(C(=O)O)=C(COC(C)=O)CSC23)c2ccc(O)cc2)C(=O)C1=O (single isomer, unassigned)

>  <assay-system>
Staphylococcus aureus 209p

>  <MIC Staphylococcus aureus 209p>
< 1.57 µg/mL

$$$$

Ask: Entry CCN1CCN(C(=O)NC(C(=O)NC2C(=O)N3C(C(=O)O)=C(CSc4nnnn4C)CSC23)c2ccc(O)cc2)C(=O)C1=O (stereo not drawn) : reported MIC Staphylococcus aureus 209p = ?
Reply: < 1.57 µg/mL
